Origin of values: PubChem BioAssay

- Test Description: inhibitors of TNFa-induced NFkB p65 translocation, primary screen, imaging, HUVEC, MLSMR starter and 10KST1 sets (AID 438);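 further: compound added about 3h40 before a 20 min TNFalpha stimulation; signal is the nuclear over cytoplasmic p65 intensity ratio per well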
- Run Parameters: HUVEC TNFa-induced p65 nuclear translocation; at 2 µM, stronger effect = higher value, 0% TNFa-plus-vehicle, 100% no-TNFa wells
Entries and their inhibition values follow.
Quantity Name: inhibition (%)

# Compound, Quantity Name, Result Number
measured = [
    ("O=C(Nc1ccccc1C(=O)NCCCn1ccnc1)c1ccccc1", "inhibition", -10.6),
    ("O=C(O)C1CC=CCC1C(=O)N1CCN(c2nc(-c3ccccc3)c3ccccc3n2)CC1 (stereo unspecified)", "inhibition", -16.9),
    ("C[N+]12CCC(CC1)C(OC(=O)C(O)(c1ccccc1)c1ccccc1)C2 (stereo unspecified)", "inhibition", -0.8),
    ("COC(=O)CN(c1nc(C)c(Br)c(OC)n1)S(=O)(=O)c1ccc(C)cc1", "inhibition", 6.5),
    ("CCCCOc1ccc(-c2nnc(N)s2)cc1", "inhibition", -17.7),
    ("Nc1nc(F)nc2c1ncn2[C@@H]1O[C@H](CO)[C@@H](O)[C@@H]1O", "inhibition", -6.8),
]

----------
- Test Description: inhibitors of Sendai virus-induced IRF3 signaling, primary screen, TLR/RLR signaling modifier project, cell-based, Sendai virus stimulus, luciferase, 10K MLSCN set (AID 602276);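 further: firefly luciferase from ISG56 promoter only with Renilla not read in this screen; 0% = Sendai virus plus DMSO and 100% = medium plus DMSO without virus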
- Run Parameters: HEK293 RL24 IRF3 luciferase reporter, at 10 µM, stronger effect = higher value
Listed molecules paired with reported inhibition
Quantity Name: inhibition (%)

# Molecule, Quantity Name, Result Number
records = [
    ("CN(C)CC(O)COc1ccc(-c2ccc(C#N)cc2)cc1 (stereo not given)", "inhibition", -0.588),
    ("CN(C)c1nc(N(C)C)nc(N(C)C)n1", "inhibition", 14.2),
    ("Cn1c(SCC(=O)N2CCOCC2)nnc1-c1cccc(NC(=O)c2ccccc2F)c1", "inhibition", 13.9),
    ("Nn1c(SCC(=O)Nc2ccc3c(c2)OCCO3)nnc1C(F)(F)F", "inhibition", 12.4),
    ("Cc1nc(/N=C(\\N)Nc2ccccc2)nc2ccccc12", "inhibition", -6.34),
    ("C[C@@H]1C[C@H]2[C@@H]3CCC4=CC(=O)C=C[C@]4(C)[C@@]3(F)[C@@H](O)C[C@]2(C)[C@@]1(O)C(=O)COP(=O)(O)O", "inhibition", -1.94),
    ("CCN(CC)CCOC(=O)C1(C2CCCCC2)CCCCC1", "inhibition", 10.2),
    ("Cc1cccc(N2C(=O)CC(N3CCN(Cc4ccc(Cl)cc4)CC3)C2=O)c1 (stereo not given)", "inhibition", 16.4),
    ("COC(=O)c1cc(S(=O)(=O)N2CCOCC2)c(N2CCOCC2)cc1N1CCOCC1", "inhibition", 4.03),
    ("Cc1cc(C)nc(NC(=O)c2ccc(OC(C)C)cc2)n1", "inhibition", -1.16),
]

----------
- Test Description: DUSP6 inhibitors restoring Erk phosphorylation by chemical complementation, primary imaging in DUSP6-transfected HeLa (AID 609)
- Run Parameters: HeLa MKP-3 transfected, phospho-Erk imaging KS statistic; measured here: nuclear pErk red intensity z-score; at 10 µM; stronger effect = higher value; cells stimulated with TPA for 15 min
Reported values of z-score for individual entries

# Molecule, z-score
records = [
    ("Cc1cc(=O)oc(C)c1C(=O)NCCNC(=O)c1c(C)cc(=O)oc1C", 1.3),
    ("CCC(C(=O)OCCN(CC)CC)c1ccccc1 (stereo unspecified)", 0.111),
    ("COC(=O)CSc1nc(N)c2c3c(sc2n1)CCCC3", 1.1),
    ("CN1C(=O)c2ccc(N(C)C)cc2C1=O", -0.534),
    ("C[C@]12C=CC(=O)C=C1CC[C@@H]1[C@@H]2[C@@H](O)C[C@@]2(C)[C@H]1CC[C@]2(O)C(=O)COC(=O)CCC(=O)O", -0.0671),
    ("COc1cc(C(=O)Nc2nccs2)cc(OC)c1OC", 0.494),
    ("CC(C)NCC(O)COc1ccc(CCOCC2CC2)cc1 (stereo unspecified)", 0.0924),
    ("Clc1ccccc1-c1nn2c(-c3ccccn3)nnc2s1", -0.483),
    ("Cc1onc(-c2ccccc2Cl)c1C(=O)N1CCN(c2nc3ccccc3s2)CC1", -1.2),
    ("Cc1[nH]c2ccc3c(ncn3CCC#N)c2c1C", 0.974),
    ("CSC1=Nc2sc3c(c2C2=NCCN12)CC(C)(C)OC3", -0.378),
]

----------
- Target Or Test System: Alpha-2C adrenergic receptor (Homo sapiens) (UniProt P18825)
- Sequence (P18825 whole entry, looked up): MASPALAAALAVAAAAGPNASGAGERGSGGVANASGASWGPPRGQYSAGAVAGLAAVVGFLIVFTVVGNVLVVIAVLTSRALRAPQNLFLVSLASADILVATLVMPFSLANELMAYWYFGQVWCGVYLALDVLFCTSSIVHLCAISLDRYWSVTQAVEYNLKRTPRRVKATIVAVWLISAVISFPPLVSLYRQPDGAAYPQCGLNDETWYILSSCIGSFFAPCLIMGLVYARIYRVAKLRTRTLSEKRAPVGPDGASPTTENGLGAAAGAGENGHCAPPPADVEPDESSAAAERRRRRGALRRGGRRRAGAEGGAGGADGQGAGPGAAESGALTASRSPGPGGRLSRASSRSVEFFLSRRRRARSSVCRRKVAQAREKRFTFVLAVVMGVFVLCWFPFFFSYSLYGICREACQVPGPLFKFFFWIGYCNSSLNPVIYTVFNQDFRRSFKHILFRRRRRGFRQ
- Test Description: modulators of alpha2C/GIRK thallium flux, primary screen, cell-based, HEK293 alpha2C/GIRK1/2 (AID 624);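 further: slope of fluorescence ratio to pre-addition baseline per second over 15 to 24 s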
- Run Parameters: thallium flux BTC fluorescence, at 10 µM, actives lie on both sides
# slope per record follows

# Molecule, slope
measured = [
    ("COC(=O)C1=C(C)N=C2SC(C)C(=O)N2C1c1cccc(F)c1 (stereo not drawn)", 0.00444),
    ("CS(=O)(=O)Nc1ccc([N+](=O)[O-])cc1Oc1ccccc1", 0.00467),
    ("CCCc1c(OCCCCc2nn[nH]n2)ccc(C(C)=O)c1O", 0.00468),
    ("CCOC(=O)c1oc2cc(O)cc(C)c2c(=O)c1-c1cscn1", 0.0036),
    ("Cn1ccnc1SCCC#N", 0.00562),
    ("c1cncc(-c2nnc3sc(C4CCCCC4)nn23)c1", 0.00837),
    ("O=C1C=C(O)CC(c2cccs2)C1 (stereo not drawn)", 0.00523),
    ("CCCN(CCC)S(=O)(=O)c1ccc(C(=O)O)cc1", 0.00488),
    ("CC(C)Oc1ccc(Cc2c(O)nc(NCCCN(C)C)[nH]c2=O)cc1", 0.00657),
    ("Cc1ccc(-c2nnc(-c3cccc(Br)c3)o2)cc1", 0.00623),
    ("c1ccc2[nH]c(-c3cscn3)nc2c1", 0.00525),
    ("N#CCSc1nc2c(cc1C#N)CCCCCC2", 0.0055),
    ("CC(C)OC(=O)CC1=NC(=O)CS1", 0.00582),
]

----------
- Test Description: inhibitors of poly I:C-induced TLR3 signaling, primary screen, cell-based, poly I:C stimulus, luciferase, 10K MLSCN set (AID 602277)
- Run Parameters: HEK293-TLR3 RL24 IRF3 luciferase reporter, at 10 µM, stronger effect = higher value

# Compound, inhibition / %
measured = [
    ("Cc1ccc(N(CC(O)CN2CCCC2)S(=O)(=O)c2ccc(C)cc2)cc1 (stereo not drawn)", -1.97),
    ("N#CC(C(=O)Nc1ccc(Cl)c(Cl)c1)=C1Nc2ccccc2N1", 15.9),
    ("CCCCOc1ccc(C(=O)Nn2cnnc2)cc1", 15.4),
    ("CCCCn1cnc2c(c1=O)c1nc3ccccc3nc1n2Cc1ccc2c(c1)OCO2", 1.84),
    ("OCCNc1ncnc2c1c(-c1ccccc1)c(-c1ccccc1)n2Cc1ccco1", -0.125),
    ("CC(=O)C1=C(O)C(=O)N(c2ccc(C(=O)O)cc2)C1c1ccccc1 (stereo not drawn)", 17.1),
    ("CCN1CCc2c(C#N)c(N3CCOCC3)nc(NCc3ccccc3)c2C1", 10.8),
    ("CCCOc1ccc(N2C(=O)C3ON(c4ccccc4)C(c4ccc(O)c(OC)c4)C3C2=O)cc1 (stereo not drawn)", 16.8),
    ("CN1CCN(CC(=O)N2c3ccccc3C(=O)Nc3cccnc32)CC1", 34.2),
    ("Cc1nnc(SCC2=C(C(=O)O)N3C(=O)[C@@H](NC(=O)Cn4cnnn4)[C@H]3SC2)s1", 21.6),
    ("O=C(C1CC1(c1ccccc1)c1ccccc1)N1CCOCC1 (stereo not drawn)", 22.6),
    ("Cc1nn(C)cc1/C=N/O", 19),
    ("CC[N+](C)(C)c1cccc(O)c1", 38.2),
    ("O=C(NC1CCS(=O)(=O)C1)N1CCCCC1 (stereo not drawn)", 18.8),
    ("CCOC(=O)N1CCN(c2ncnc3c2[nH]c2ccc(OC)cc23)CC1", -5.19),
    ("CCOC(=O)c1ccc(N2C(=O)CC(Sc3nnc(C)s3)C2=O)cc1 (stereo not drawn)", 7),
    ("CCOC(=O)C1=C(CSc2nc(C)cc(C)c2C#N)OC(N)=C(C#N)C1c1cccs1 (stereo not drawn)", 23.4),
    ("COc1ccc(NS(=O)(=O)c2ccc(N)cc2)nn1", 27.8),
    ("O=C(OCCCN1CCCC1)C1(c2ccccc2)CCCC1", -17.4),
    ("O=C(O)c1ccccc1Nc1cccc(C(F)(F)F)c1", 28.4),
    ("COc1ccc(-c2onc(C)c2-c2ccccc2)c(O)c1", 32.3),
    ("OC(CCCN1CCC(O)(c2ccc(Cl)cc2)CC1)c1ccc(F)cc1 (stereo not drawn)", 40.2),
    ("Cc1cccc(N(C)C(=S)Oc2ccc3ccccc3c2)c1", -10.7),
]
